Biological target: CD109 (endogenous, 5-8F cells) (UniProt Q6YHK3)
Sequence: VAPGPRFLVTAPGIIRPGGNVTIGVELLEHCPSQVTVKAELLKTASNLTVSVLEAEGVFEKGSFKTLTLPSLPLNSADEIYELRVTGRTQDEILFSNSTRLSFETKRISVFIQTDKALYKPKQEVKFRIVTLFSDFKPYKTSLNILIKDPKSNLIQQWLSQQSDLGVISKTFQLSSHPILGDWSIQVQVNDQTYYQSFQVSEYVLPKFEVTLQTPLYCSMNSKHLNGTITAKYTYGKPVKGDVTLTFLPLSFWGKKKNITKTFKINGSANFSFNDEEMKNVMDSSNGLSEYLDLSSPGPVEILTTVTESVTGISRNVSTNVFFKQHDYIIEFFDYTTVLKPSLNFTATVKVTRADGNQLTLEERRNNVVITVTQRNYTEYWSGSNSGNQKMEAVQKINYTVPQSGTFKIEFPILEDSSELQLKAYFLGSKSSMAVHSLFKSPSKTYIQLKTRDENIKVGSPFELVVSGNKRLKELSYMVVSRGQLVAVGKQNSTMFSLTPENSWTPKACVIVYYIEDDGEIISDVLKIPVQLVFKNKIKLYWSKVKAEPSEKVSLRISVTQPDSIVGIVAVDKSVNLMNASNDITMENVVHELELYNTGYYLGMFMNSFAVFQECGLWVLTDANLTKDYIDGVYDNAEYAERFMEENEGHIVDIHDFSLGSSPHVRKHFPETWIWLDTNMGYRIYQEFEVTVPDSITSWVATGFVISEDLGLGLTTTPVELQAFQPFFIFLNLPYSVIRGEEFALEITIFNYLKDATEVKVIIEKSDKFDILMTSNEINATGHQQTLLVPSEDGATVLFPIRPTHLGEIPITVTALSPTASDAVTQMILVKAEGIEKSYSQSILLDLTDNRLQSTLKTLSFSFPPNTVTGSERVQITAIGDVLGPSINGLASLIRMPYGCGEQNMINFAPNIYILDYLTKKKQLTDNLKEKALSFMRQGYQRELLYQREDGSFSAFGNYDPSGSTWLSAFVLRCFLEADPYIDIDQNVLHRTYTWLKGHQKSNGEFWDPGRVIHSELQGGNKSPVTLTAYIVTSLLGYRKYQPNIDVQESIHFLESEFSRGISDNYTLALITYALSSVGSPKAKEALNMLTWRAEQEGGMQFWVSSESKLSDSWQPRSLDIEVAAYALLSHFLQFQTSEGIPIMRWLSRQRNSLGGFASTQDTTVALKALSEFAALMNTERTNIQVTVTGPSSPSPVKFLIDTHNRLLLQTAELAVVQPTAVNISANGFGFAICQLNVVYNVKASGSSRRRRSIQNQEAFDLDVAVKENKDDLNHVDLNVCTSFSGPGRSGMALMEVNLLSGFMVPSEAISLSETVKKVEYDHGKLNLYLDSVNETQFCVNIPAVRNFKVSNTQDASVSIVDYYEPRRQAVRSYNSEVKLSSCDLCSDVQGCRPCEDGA
Assay: flow cytometry
Conditions: whole 5-8F cells, on ice, 10% FBS, library background subtracted, Cells: D-PBS (Ca/Mg-free) + 4.5 g/L glucose, 5 mM MgCl2, 0.1 mg/mL yeast tRNA, 1 mg/mL BSA, on ice 0.5 h, EMSA: binding buffer, 4 C, 5% native PAGE in …
MEASURED_ATTRIBUTE: Kd (nM)
Please give a number only; it is taken to be in nM.

*Q* I would be grateful if you could share the reported Kd for ATCCAGAGTGACGCAGCATCTGAGAATAGTGGTTTGCTGTATGGTGGGCGTTGAAAGAGGGGTGGACACGGTGGCTTAGT [S3 (FITC-labeled)] .
*A* 11.9
